assayed system: transmembrane domain of wt A/M2 protein (M2TM, residues 22–46) (Influenza A virus)
Sequence (P0DOF5 22-46 limits assumed): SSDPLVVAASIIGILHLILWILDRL
condition parameters: pH 7.4
measured quantity: pKd
Give bare numbers, as −log10 of the molar value.

Query block: Which pKd is listed for `C1CCC2(CC1)CCN(C1=NCCN1)CC2` ?
Result block: 3.71
